Biological target: T1, Recombinant human high mobility group box 1 (HMGB1) (human, UniProt P09429 1-215)
T1 construct: high mobility group box 1 (HMGB1); the SPR methods say recombinant human HMGB1; the SPR paragraph says human; The protein on the chip may be that rat construct
T1 sequence (looked up): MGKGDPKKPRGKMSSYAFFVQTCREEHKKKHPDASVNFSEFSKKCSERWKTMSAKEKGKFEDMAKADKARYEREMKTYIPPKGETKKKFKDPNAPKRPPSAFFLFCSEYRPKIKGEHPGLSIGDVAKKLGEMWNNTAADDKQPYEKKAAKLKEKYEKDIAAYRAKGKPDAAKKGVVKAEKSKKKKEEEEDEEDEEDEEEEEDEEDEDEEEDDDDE
Experiment: SPR; Nicoya OpenSPR; recombinant human HMGB1 immobilized on a carboxyl sensor chip, P2-1 flowed over at various concentrations in HBS-P buffer; 1:1 interaction model; three independent experiments
Conditions: both partners purified
Where no end group is shown, it is not given here. [ ]: non-standard residue; d: D form. Nle = CCCC[C@H](N)C(=O)O
reportedProperty: Kd (nM)
Your answer is read as nM, so omit the unit and give the number.

What measured Kd goes with TKVH[Nle]KSFLAFQTKT [P2-1 peptide, water-soluble derivative of the tetranectin P2 epitope peptide] ?
16.9
